Values compiled from PubChem BioAssay.

assay: VP16 transactivation inhibitors, counter-screen for SRC1 inhibitor project, cell-based, luminescence, high throughput (AID 588824); details: cell-based VP16 transactivation luciferase luminescence; at 3.6 µM; active compounds read high
Parameter: inhibition. Scope: all listed entries.
Field: numeric (%). Do not append units.

INSERT INTO assay_data (item_smiles, reported) VALUES
  ('COc1ccc(CNC(=O)c2ccc(N3CCC4(CC3)CC(c3ccc(Cl)cc3)=NO4)c([N+](=O)[O-])c2)cc1', 28.2),
  ('NNC(=O)c1cc2ccccc2cc1O', 19.3),
  ('COc1ccc(-c2cn[nH]c2C)cc1', 5.39),
  ('CCCc1ccc(C(=O)O/N=C(\N)c2ccccn2)cc1', -63.2);

Query: Give the reported inhibition for this compound. "COc1ccc(CCN(C)C(=O)c2cc(S(=O)(=O)N3CCCCC3)ccc2Cl)cc1OC"
Response: 8.04

Query: Please supply the value of reported inhibition for the item "CCOc1ccc(-n2c(-c3ccc(OC)cc3)c[n+]3c2CCCCC3)cc1"
Response: 63.9

Query: Tell me measured inhibition for "CCOc1cccc(/C=N/NC(=S)Nc2ccccc2[N+](=O)[O-])c1O" please.
Response: 38.2

Query: Quickly give me recorded inhibition for "COC1=CC(=O)c2c(ccc3ncnc(N)c23)C1=O"
Response: 64.3

Query: Identify the reported inhibition for the following entry. "CSc1ccc(CN2CCN(C(=O)CC(C)C)CC2)cc1"
Response: -2.54

Query: Consider the compound "O=C(N/N=C/c1cc(Cl)ccc1O)c1ccc(Br)cc1" . State its measured inhibition.
Response: 38.4

Query: Determine its reported inhibition: "CCOc1ccc(CSC(=N)N)cc1Cl"
Response: 9.52
